# Tested on: HepG2
# assayDetails: Cytotoxicity against human HepG2 cells assessed as growth inhibition after 48 hrs by MTT assay
# Assay type: functional, cell-based
# experimentalConditions: HepG2, 48 h
IC50 reference
measurementName: IC50

INSERT INTO measurements (compound, experimentalvalue) VALUES
  ('CC(=O)OC1CC(C)(C)[C@]2(O)C[C@H](O)[C@H]3[C@@H](C)C4=CC(=O)O[C@]4(O)C[C@@H]3[C@@]2(C)[C@H]1OC(C)=O (some centres undefined)', '> 50 µM'),
  ('CC(=O)O[C@H]1CCC(C)(C)[C@]2(O)[C@@H](OC(C)=O)[C@H](O)c3c(cc4occc4c3C)[C@@]12C', '> 50 µM'),
  ('COC(=O)CC1=C(C)[C@@H]2[C@@H](OC(C)=O)[C@H](OC(C)=O)[C@@]3(O)C(C)(C)CC[C@H](OC(C)=O)[C@]3(C)[C@H]2CC1=O', '18.5 µM'),
  ('CC(=O)O[C@H]1CCC(C)(C)C2=CC(=O)c3c(cc4occc4c3C)[C@]21C', '> 50 µM');
